Origin of the recorded values: ChEMBL document CHEMBL4622915

Reported pIC50 values for a set of compounds
Test system: HuCC-A1
Experiment: Anticancer activity against human HuCCa1 cells assessed as reduction in cell viability measured after 72 hrs by SRB assay
Assay type: functional, cell-based
Conditions: HuCC-A1, 72 h
Note: pIC50 values are expressed as the negative base-10 logarithm of concentration in M.

Worked cases, pIC50 given:
Cc1c2ccncc2c(C)c2c1[nH]c1ccccc12 : 5.61
C=C1CC[C@@H]2[C@](C)(COC(C)=O)[C@H](OC(C)=O)CC[C@@]2(C)[C@@H]1C[C@H](SC(=S)N1CCN(c2ncccn2)CC1)C1=CCOC1=O : 5.24
C=C1CC[C@@H]2[C@](C)(COC(C)=O)[C@H](OC(C)=O)CC[C@@]2(C)[C@@H]1C[C@H](SC(=S)N1CCN(c2ccc(O)cc2)CC1)C1=CCOC1=O : 5.31
C=C1CC[C@@H]2[C@](C)(COC(C)=O)[C@H](OC(C)=O)CC[C@@]2(C)[C@@H]1C[C@H](SC(=S)N(CC)Cc1ccncc1)C1=CCOC1=O : 5.15

Task: System HuCC-A1. Read-out pIC50. Item "C=C1CC[C@@H]2[C@](C)(COC(C)=O)[C@H](OC(C)=O)CC[C@@]2(C)[C@@H]1C[C@H](SC(=S)N(Cc1ccccc1)Cc1ccccc1)C1=CCOC1=O" . Report value.
Output: 5.12

Task: System HuCC-A1. Read-out pIC50. Item "C=C1CC[C@@H]2[C@](C)(COC(C)=O)[C@H](OC(C)=O)CC[C@@]2(C)[C@@H]1C/C=C1/C(=O)OC[C@H]1OC(C)=O" . Report value.
Output: 4.70

Task: System HuCC-A1. Read-out pIC50. Item C=C1CC[C@@H]2[C@](C)(COC(C)=O)[C@H](OC(C)=O)CC[C@@]2(C)[C@@H]1C[C@H](SC(=S)N1CCN(C(=O)C2COc3ccccc3O2)CC1)C1=CCOC1=O (stereo not given in full) . Report value.
Output: 4.76
